Target: Human CD33 ECD-HSA (human)
Sequence (chain, as listed by the source): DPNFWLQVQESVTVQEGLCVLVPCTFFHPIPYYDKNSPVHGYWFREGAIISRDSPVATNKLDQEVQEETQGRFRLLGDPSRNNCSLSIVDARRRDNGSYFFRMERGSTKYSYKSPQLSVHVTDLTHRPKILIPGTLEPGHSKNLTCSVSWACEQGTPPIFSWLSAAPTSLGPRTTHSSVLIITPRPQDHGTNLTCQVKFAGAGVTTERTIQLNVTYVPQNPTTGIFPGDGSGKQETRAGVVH
Test: ProteOn SPR, mAb captured by anti-human Fc, 1:1 Langmuir fit
reported.endpoint: kon
Answer format: value, then unit.

binder	measured
C33B66 (antibody, IgG1, V domains shown, huIgG1 F405L; also called C33F71; C33H55/C33L42) VH: QVQLQESGPGLVKPSGTLSLTCAVSGGSISSSNWWSWVRQPPGRGLEWIGEIYHSGNTNNSPSLKSRVTISADKSKNQFSLKLSSVTAADTAVYFCARIIAVARYFDSWGQGTLVTVSS VL: SYVLTQPPSVSVAPGQTARITCGGNNIGIKSVHWYQQKPGQAPVLVVYDDSDRPPGIPERFSGSNSGNTATLTITRVEAGDEADYYCQVWDSSSDHVVFGGGTKLTVL	38500 M⁻¹ s⁻¹
C33B125 (antibody, IgG1, V domains shown, huIgG1 F405L; also called C33F130; C33H84/C33L66) VH: QVQLVESGGGVVQPGRSLRLSCAASGFTFSSYGMHWVRQAPGKGLEWVAVISYDGSNKYYADSVKGRFTISRDNSKNTLYLQMNSLRAEDTAVYYCAKDFRSFDWLPPDSTSYYGMDVWGQGTTVTVSS VL: SYELTQPPSVSVSPGQTASITCSGDKLGDKYVCWYQQKPGQSPVVVIHQDRKRPSGIPERFSGSNFGNTATLTISGTQAMDEADYYCQAWDSSTVVFGGGTKLTVL	992000 M⁻¹ s⁻¹

Now, please, on to the next binder.
The measured kon associated with C33B73 (antibody, IgG1, V domains shown, huIgG1 F405L; also called C33F78; C33H66/C33L60) VH: QVQLVESGGGVVQPGRSLRLSCVASGFTFSSYGMHWVRQAPGKGLEWVAVISYDGSNKYYADSVKGRFTISRDNSKNTLYLQMNSLRAEGTAVYYCAKDFRSFDWLPPDSASYHGMDVWGQGTTVTVSS VL: SYELTQPPSVSVSPGQTASITCSGDKLGDKYACWYQQKPGQSPVLVIYQDGKRPSGIPERFSGSNFGNKATLTISGTQAMDEADYYCQAWDRNTVVFGGGTKLTVL reads 559000 M⁻¹ s⁻¹

Values from patent US20230322924A1
